Measured values drawn from ChEMBL document CHEMBL1828549 for this set.

Would you kindly list MIC for each of these compounds?
test system: Staphylococcus aureus; assay: Antibacterial activity against penicillin-resistant Staphylococcus aureus by the broth microdilution method; assay type: functional
Numbers only, in µg/mL.

Example results:
- CC[C@H]1OC(=O)[C@H](C)[C@@H](O[C@H]2C[C@@](C)(OC)[C@@H](OC(=O)NNC(=O)c3ccc(OC)cc3)[C@H](C)O2)[C@H](C)[C@@H](O[C@@H]2O[C@H](C)C[C@H](N(C)C)[C@H]2O)[C@](C)(O)C[C@@H](C)CN(C)[C@H](C)[C@H]2OC(=O)O[C@@]21C: 8
- CC[C@H]1OC(=O)[C@H](C)[C@@H](O[C@H]2C[C@@](C)(OC)[C@@H](OC(=O)NNC(=O)c3ccc(Br)cc3)[C@H](C)O2)[C@H](C)[C@@H](O[C@@H]2O[C@H](C)C[C@H](N(C)C)[C@H]2O)[C@](C)(O)C[C@@H](C)CN(C)[C@H](C)[C@H]2OC(=O)O[C@@]21C: 4
- CC[C@H]1OC(=O)[C@H](C)[C@@H](O[C@H]2C[C@@](C)(OC)[C@@H](OC(=O)NCCNC(=O)c3ccc(Cl)cc3Cl)[C@H](C)O2)[C@H](C)[C@@H](O[C@@H]2O[C@H](C)C[C@H](N(C)C)[C@H]2O)[C@](C)(O)C[C@@H](C)CN(C)[C@H](C)[C@H]2OC(=O)O[C@@]21C: 4

Next compound, MIC to be filled in.
stdin: Provide measured MIC value, entry: CC[C@H]1OC(=O)[C@H](C)[C@@H](O[C@H]2C[C@@](C)(OC)[C@@H](O)[C@H](C)O2)[C@H](C)[C@@H](O[C@@H]2O[C@H](C)C[C@H](N(C)C)[C@H]2O)[C@](C)(O)C[C@@H](C)CN(C)[C@H](C)[C@@H](O)[C@]1(C)O
stdout: 0.12

* * *

Would you mind telling me the reported MIC of each entry?
tested on: Streptococcus pneumoniae; experiment: Antibacterial activity against erythromycin-resistant Streptococcus pneumoniae A22072 expressing mef gene by the broth microdilution method; format: functional
Answers are plain numbers, in µg/mL.

# example entries with known answers
- CC[C@H]1OC(=O)[C@H](C)[C@@H](O[C@H]2C[C@@](C)(OC)[C@@H](OC(=O)NCCNC(=O)c3ccc(C)cc3)[C@H](C)O2)[C@H](C)[C@@H](O[C@@H]2O[C@H](C)C[C@H](N(C)C)[C@H]2O)[C@](C)(O)C[C@@H](C)CN(C)[C@H](C)[C@H]2OC(=O)O[C@@]21C: 0.25
- CC[C@H]1OC(=O)[C@H](C)[C@@H](O[C@H]2C[C@@](C)(OC)[C@@H](OC(=O)NNC(=O)c3ccc(Cl)cc3)[C@H](C)O2)[C@H](C)[C@@H](O[C@@H]2O[C@H](C)C[C@H](N(C)C)[C@H]2O)[C@](C)(O)C[C@@H](C)CN(C)[C@H](C)[C@H]2OC(=O)O[C@@]21C: 0.25

Quick one: give me MIC for each item below, same order please.
1. CC[C@H]1OC(=O)[C@H](C)[C@@H](O[C@H]2C[C@@](C)(OC)[C@@H](OC(=O)NCCNC(=O)c3ccccc3OC)[C@H](C)O2)[C@H](C)[C@@H](O[C@@H]2O[C@H](C)C[C@H](N(C)C)[C@H]2O)[C@](C)(O)C[C@@H](C)CN(C)[C@H](C)[C@H]2OC(=O)O[C@@]21C
2. CC[C@H]1OC(=O)[C@H](C)[C@@H](O[C@H]2C[C@@](C)(OC)[C@@H](OC(=O)NNC(=O)c3ccc(Br)cc3)[C@H](C)O2)[C@H](C)[C@@H](O[C@@H]2O[C@H](C)C[C@H](N(C)C)[C@H]2O)[C@](C)(O)C[C@@H](C)CN(C)[C@H](C)[C@H]2OC(=O)O[C@@]21C

stdout:
8
0.12
